Molecular target: Sodium- and chloride-dependent glycine transporter 1 (Homo sapiens)
Sequence (P48067 whole entry): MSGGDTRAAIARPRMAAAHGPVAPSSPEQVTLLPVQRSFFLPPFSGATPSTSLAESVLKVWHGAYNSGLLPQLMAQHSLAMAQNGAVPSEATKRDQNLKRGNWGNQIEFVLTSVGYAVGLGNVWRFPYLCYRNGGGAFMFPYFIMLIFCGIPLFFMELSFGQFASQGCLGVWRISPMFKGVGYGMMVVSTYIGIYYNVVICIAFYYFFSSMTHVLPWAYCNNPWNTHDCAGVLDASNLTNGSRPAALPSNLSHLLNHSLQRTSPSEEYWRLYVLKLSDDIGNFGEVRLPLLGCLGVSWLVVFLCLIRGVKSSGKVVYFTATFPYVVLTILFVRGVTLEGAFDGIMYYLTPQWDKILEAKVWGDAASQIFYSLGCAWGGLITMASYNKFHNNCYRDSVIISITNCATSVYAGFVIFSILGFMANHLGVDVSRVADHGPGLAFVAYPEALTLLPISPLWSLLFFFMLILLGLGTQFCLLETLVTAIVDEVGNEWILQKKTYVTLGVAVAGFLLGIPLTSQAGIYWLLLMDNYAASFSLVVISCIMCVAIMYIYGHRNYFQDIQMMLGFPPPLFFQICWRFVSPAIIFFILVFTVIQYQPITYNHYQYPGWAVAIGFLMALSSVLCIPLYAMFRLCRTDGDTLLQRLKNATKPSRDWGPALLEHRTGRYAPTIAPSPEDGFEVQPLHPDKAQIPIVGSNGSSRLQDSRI
Assay: Inhibition of [3H]glycine uptake using CHO cells transfected with GlyT-1b transporter
pIC50: −log10 of the molar value.
READOUT NAME: pIC50

compound="CN(CCCC(=O)O)CCC(Oc1ccc(C(F)(F)F)cc1)c1ccccc1 (stereo not drawn)" readout_name=pIC50 experimental_value=4.00
compound="CN(CCC(Oc1ccc(Cl)c(Cl)c1)c1ccccc1)CC(=O)O (stereo not drawn)" readout_name=pIC50 experimental_value=6.30
compound="CN(CCC(Cc1ccc(C(F)(F)F)cc1)c1ccccc1)CC(=O)O (stereo not drawn)" readout_name=pIC50 experimental_value=6.00
compound="COc1ccc(C(CCN(C)CC(=O)O)Oc2ccc(C(F)(F)F)cc2)cc1 (stereo not drawn)" readout_name=pIC50 experimental_value=6.30
compound="CN(CCC(Oc1ccccc1Cl)c1ccccc1)CC(=O)O (stereo not drawn)" readout_name=pIC50 experimental_value=4.90

(I) CCN(CCC(Oc1ccc(C(F)(F)F)cc1)c1ccccc1)CC(=O)O (stereo not drawn)
(II) CN(CC[C@H](Oc1ccc(C(F)(F)F)cc1)c1ccccc1)CC(=O)O
(III) CN(CCC(Oc1ccc(S(C)(=O)=O)cc1)c1ccccc1)CC(=O)O (stereo not drawn)
(IV) CN(CC[C@@H](Oc1ccc(C(C)(C)C)cc1)c1ccccc1)CC(=O)O
(V) CN(CC[C@@H](Oc1ccc(-c2ccccc2)cc1)c1ccccc1)CC(=O)O
Exam item: list the entries in increasing order of pIC50. # output: labels, in the requested order III, I, II, IV, V
(III: 4.00, I: 5.30, II: 5.58, IV: 6.35, V: 6.82)

(a) CN(CCC(Oc1ccc(C(F)(F)F)cc1)c1ccccc1)CC(=O)O (stereo not drawn)
(b) COc1ccc(OC(CCN(C)CC(=O)O)c2ccccc2)cc1 (stereo not drawn)
From the items above, decide which of a and b has the lower pIC50 reading. Give the label of your selection. b
